Each entry below carries its reported pIC50.
# Target entity: smooth muscle angiotensin II receptor
# Experiment notes: Assay A: Angiotensin II Binding Activity (displacement of 125I-AII, rat uterine membrane preparation)
# Assay conditions: 50% displacement of specifically bound 125I-AII; rat uterine membranes; 25° C., 60 min
Convention used: pIC50 is expressed as -log10 of the molar concentration.

// below: answered molecules
{"columns": ["Structure", "pIC50"],
 "data": [
  ["CCCCc1nc(CCC)n(Cc2ccc(-c3ccccc3-c3nnn[nH]3)cc2)n1", 7.80],
  ["CCCCc1nc(C(F)(F)CCC)nn1Cc1ccc(-c2ccccc2-c2nnn[nH]2)cc1", 8.31],
  ["CCCc1nc(CCC)n(Cc2ccc(-c3ccccc3-c3nnn[nH]3)cc2)n1", 8.22],
  ["CCCCc1nc(Cl)n(Cc2ccc(-c3ccccc3C(=O)O)cc2)n1", 5.77]
]}

## Task Param item = CCCCc1nc(C(F)(F)CCC)n(Cc2ccc(-c3ccccc3-c3nnn[nH]3)cc2)n1 ; retrieve measured pIC50.
## Result 6.80

## Task CCCCc1nc(CCCC)n(Cc2ccc(-c3ccccc3C(=O)NNS(=O)(=O)C(F)(F)F)cc2)n1 ?
## Result 6.70

## Task Similarly, CCCCc1nc(CCC(C)C)n(Cc2ccc(-c3ccccc3-c3nnn[nH]3)cc2)n1 ?
## Result 8.19

## Task Queued: CCCCc1nc(Cl)n(Cc2ccc(-c3ccccc3-c3nnn[nH]3)cc2)n1
## Result 6.15
